Assay: Plasma protein binding rate, CD-1 mouse plasma (equilibrium dialysis)
Type: in vitro ADME
Settings: CD-1 mice plasma, dialysis 4 h at 37° C.
Below, each of the compounds is paired with its reported fraction unbound at 4 h, 2 μM value.
Answer as a number with no unit attached.

# count of solved cases: 4
{"columns": ["COMPOUND", "fraction unbound at 4 h, 2 μM"],
 "data": [
  ["O=C1NOCc2c(-c3ccc(C4CCCN4)cc3)[nH]c3cc(F)cc1c23 (single isomer, unassigned)", 0.037],
  ["CC1(c2ccc(-c3[nH]c4cccc5c4c3CONC5=O)cc2)CCCN1 (centres unmarked)", 0.208],
  ["CC1(c2ccc(-c3[nH]c4cc(F)cc5c4c3CONC5=O)cc2F)CCCN1 (single isomer, unassigned)", 0.08],
  ["O=C1NOCc2c(-c3ccc(C4CCCN4)c(F)c3)[nH]c3cccc1c23 (centres unmarked)", 0.101]
]}

Next up:
Determine from records and report fraction unbound at 4 h, 2 μM for CC1(c2ccc(-c3[nH]c4cc(F)cc5c4c3CONC5=O)cc2)CCCN1 (centres unmarked)
0.104

###

Molecular target: CYP2C19 (Homo sapiens)
Construct: a human liver microsome solution; from tissue; host or cells: human liver microsomes
Sequence (P33261 whole entry): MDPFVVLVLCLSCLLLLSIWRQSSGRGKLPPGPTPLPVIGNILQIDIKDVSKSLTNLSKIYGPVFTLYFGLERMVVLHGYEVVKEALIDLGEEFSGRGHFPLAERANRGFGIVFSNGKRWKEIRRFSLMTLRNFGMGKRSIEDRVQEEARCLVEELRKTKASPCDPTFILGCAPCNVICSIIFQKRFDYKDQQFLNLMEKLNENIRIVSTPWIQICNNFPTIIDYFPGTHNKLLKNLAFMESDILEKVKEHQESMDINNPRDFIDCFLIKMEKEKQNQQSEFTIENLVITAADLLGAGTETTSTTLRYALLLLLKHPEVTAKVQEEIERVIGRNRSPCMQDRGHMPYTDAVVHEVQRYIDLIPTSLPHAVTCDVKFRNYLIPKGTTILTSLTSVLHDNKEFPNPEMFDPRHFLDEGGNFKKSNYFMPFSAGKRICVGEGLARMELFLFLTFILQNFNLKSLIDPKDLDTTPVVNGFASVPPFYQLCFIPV
Assay: Inhibition against cytochrome P450 isoenzyme, human liver microsomes
Assay type: in vitro ADME
PROPERTY: IC50 (µM)
Express the result in µM but write the number alone.

{"columns": ["MOLECULE", "IC50 (µM)"],
 "data": [
  ["O=C1NOCc2c(-c3ccc(C4CCCN4)cc3)[nH]c3cc(F)cc1c23 (single isomer, unassigned) [Example 24_A]", 17.2],
  ["CC1(c2ccc(-c3[nH]c4cc(F)cc5c4c3CONC5=O)cc2F)CCCN1 (single isomer, unassigned) [Example 26_A]", 3.31],
  ["O=C1NOCc2c(-c3ccc(C4CCCN4)c(F)c3)[nH]c3cccc1c23 (stereo not shown) [Example 11_A]", 15.5]
]}

With CYP2C19 (Homo sapiens) as the test system, provide measured IC50 for this molecule: CC1(c2ccc(-c3[nH]c4cc(F)cc5c4c3CONC5=O)cc2)CCCN1 (stereo not shown) [Example 25_A]
8.33

###

Test: Plasma protein binding rate, human plasma (equilibrium dialysis)
Type: in vitro ADME
Conditions: dialysis 4 h at 37° C.
Response key: Met means fraction unbound at 4 h, 2 μM >= 0.1; Not met means fraction unbound at 4 h, 2 μM < 0.1.

{"columns": ["COMPOUND", "CATEGORY_LABEL"],
 "data": [
  ["CC1(c2ccc(-c3[nH]c4cccc5c4c3CONC5=O)cc2)CCCN1 (centres unmarked) [Example 6_A]", "Met"],
  ["CC1(c2ccc(-c3[nH]c4cc(F)cc5c4c3CONC5=O)cc2)CCCN1 (centres unmarked) [Example 25_A]", "Met"],
  ["O=C1NOCc2c(-c3ccc(C4CCCN4)c(F)c3)[nH]c3cccc1c23 (centres unmarked) [Example 11_A]", "Met"]
]}

Is the recorded value of fraction unbound at 4 h, 2 μM equal to or greater than 0.1 for this compound? O=C1NOCc2c(-c3ccc(C4CCCN4)cc3)[nH]c3cc(F)cc1c23 (single isomer, unassigned) [Example 24_A]
Not met

Is the recorded value of fraction unbound at 4 h, 2 μM equal to or greater than 0.1 for this compound? CC1(c2ccc(-c3[nH]c4cc(F)cc5c4c3CONC5=O)cc2F)CCCN1 (single isomer, unassigned) [Example 26_A]
Not met

###

Assay: Metabolic stability in liver microsomes, human
Type: in vitro ADME
Details: Human liver microsomes 0.5 mg/mL, 1 μM compound, NADPH, 37° C.
Below, each of the compounds is paired with its reported Residual content after 60 min of incubation value.

# count of solved cases: 2
{"columns": ["COMPOUND", "ENDPOINT_RESULT"],
 "data": [
  ["CC1(c2ccc(-c3[nH]c4cc(F)cc5c4c3CONC5=O)cc2)CCCN1 (centres unmarked)", "35.9%"],
  ["CC1(c2ccc(-c3[nH]c4cc(F)cc5c4c3CONC5=O)cc2F)CCCN1 (single isomer, unassigned)", "29.6%"]
]}

Determine from records and report Residual content after 60 min of incubation for O=C1NOCc2c(-c3ccc(C4CCCN4)c(F)c3)[nH]c3cccc1c23 (centres unmarked)
73.8%

Determine from records and report Residual content after 60 min of incubation for CC1(c2ccc(-c3[nH]c4cccc5c4c3CONC5=O)cc2)CCCN1 (centres unmarked)
53.7%

Determine from records and report Residual content after 60 min of incubation for O=C1NOCc2c(-c3ccc(C4CCCN4)cc3)[nH]c3cc(F)cc1c23 (single isomer, unassigned)
60.4%

###

Below, each of the compounds is paired with its reported IC50 value.
Target: CYP3A4-M (Homo sapiens, UniProt P08684)
Construct: a human liver microsome solution; from tissue; host or cells: human liver microsomes
Sequence (P08684 whole entry): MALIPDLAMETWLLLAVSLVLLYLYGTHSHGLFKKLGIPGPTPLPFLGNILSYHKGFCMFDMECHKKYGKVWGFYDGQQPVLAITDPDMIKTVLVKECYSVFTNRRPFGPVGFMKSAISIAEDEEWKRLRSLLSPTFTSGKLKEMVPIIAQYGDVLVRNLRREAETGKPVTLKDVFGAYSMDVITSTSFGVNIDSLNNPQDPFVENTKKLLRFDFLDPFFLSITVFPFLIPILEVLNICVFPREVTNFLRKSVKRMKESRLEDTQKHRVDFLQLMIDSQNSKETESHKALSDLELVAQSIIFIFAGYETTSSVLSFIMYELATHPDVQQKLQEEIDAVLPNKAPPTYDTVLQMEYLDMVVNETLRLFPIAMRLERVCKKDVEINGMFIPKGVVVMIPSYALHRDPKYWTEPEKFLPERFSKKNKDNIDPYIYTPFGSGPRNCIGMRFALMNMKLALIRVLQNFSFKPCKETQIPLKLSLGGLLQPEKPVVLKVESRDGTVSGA
Experiment: Inhibition against cytochrome P450 isoenzyme, human liver microsomes
Assay type: in vitro ADME
Description: Experimental Example 6: Study on Inhibition Against Cytochrome P450 Isoenzyme The inhibition of the test compounds against different subtypes of the human cytochrome P450 isoenzyme was determined. Test compounds, a standard inhibitor (100×final concentration) and a mixed substrate working solution were prepared; the microsomes frozen in a refrigerator at −80° C. were taken out and thawed. […]

# count of solved cases: 3
{"columns": ["COMPOUND", "SUBJECT_OF_TEST", "IC50"],
 "data": [
  ["O=C1NOCc2c(-c3ccc(C4CCCN4)cc3)[nH]c3cc(F)cc1c23 (single isomer, unassigned) [Example 24_A]", "CYP3A4-M (Homo sapiens, UniProt P08684)", "> 50 µM"],
  ["CC1(c2ccc(-c3[nH]c4cc(F)cc5c4c3CONC5=O)cc2F)CCCN1 (single isomer, unassigned) [Example 26_A]", "CYP3A4-M (Homo sapiens, UniProt P08684)", "14.1 µM"],
  ["O=C1NOCc2c(-c3ccc(C4CCCN4)c(F)c3)[nH]c3cccc1c23 (stereo not shown) [Example 11_A]", "CYP3A4-M (Homo sapiens, UniProt P08684)", "35 µM"]
]}

Next up:
Determine from records and report IC50 for CC1(c2ccc(-c3[nH]c4cc(F)cc5c4c3CONC5=O)cc2)CCCN1 (stereo not shown) [Example 25_A]
32.9 µM

###

Assay: Plasma protein binding rate, SD rat plasma (equilibrium dialysis)
Type: in vitro ADME
Conditions: Sprague-Dawley, SD rats plasma, dialysis 4 h at 37° C.
Response key: label 1 means fraction unbound at 4 h, 2 μM >= 0.08; label 0 means fraction unbound at 4 h, 2 μM < 0.08.

{"columns": ["MOLECULE", "CATEGORY_LABEL"],
 "data": [
  ["CC1(c2ccc(-c3[nH]c4cc(F)cc5c4c3CONC5=O)cc2)CCCN1 (centres unmarked) [Example 25_A]", "label 0"],
  ["O=C1NOCc2c(-c3ccc(C4CCCN4)cc3)[nH]c3cc(F)cc1c23 (single isomer, unassigned) [Example 24_A]", "label 0"],
  ["O=C1NOCc2c(-c3ccc(C4CCCN4)c(F)c3)[nH]c3cccc1c23 (centres unmarked) [Example 11_A]", "label 0"],
  ["CC1(c2ccc(-c3[nH]c4cccc5c4c3CONC5=O)cc2)CCCN1 (centres unmarked) [Example 6_A]", "label 1"]
]}

Is the recorded value of fraction unbound at 4 h, 2 μM equal to or greater than 0.08 for this molecule? CC1(c2ccc(-c3[nH]c4cc(F)cc5c4c3CONC5=O)cc2F)CCCN1 (single isomer, unassigned) [Example 26_A]
label 1

###

Experiment: Single-dose pharmacokinetic study in mice
Assay type: in vivo
Details: mouse, plasma; male C57BL/6 mice; IV: 1 mg/kg PO: 5 mg/kg
PROPERTY: clearance (mL/min/kg)
Express the result in mL/min/kg but write the number alone.

# count of solved cases: 3
{"columns": ["COMPOUND", "UNIT_ABBREV", "clearance"],
 "data": [
  ["CNCc1ccc(-c2[nH]c3cc(F)cc4c3c2CCNC4=O)cc1 [Rucaparib, reference compound]", "mL/min/kg", 99.9],
  ["CC1(c2ccc(-c3[nH]c4cc(F)cc5c4c3CONC5=O)cc2)CCCN1 (stereo not shown)", "mL/min/kg", 41],
  ["O=C1NOCc2c(-c3ccc(C4CCCN4)cc3)[nH]c3cc(F)cc1c23 (single isomer, unassigned)", "mL/min/kg", 34.9]
]}

Determine from records and report clearance for CC1(c2ccc(-c3[nH]c4cc(F)cc5c4c3CONC5=O)cc2F)CCCN1 (single isomer, unassigned)
60.7

###

Below, each of the molecules is paired with its reported bioavailability value.
Assay: Single-dose pharmacokinetic study in mice
Format: in vivo
Conditions: mouse, plasma; male C57BL/6 mice; IV: 1 mg/kg PO: 5 mg/kg
Express the result in % but write the number alone.

# count of solved cases: 3
{"columns": ["MOLECULE", "bioavailability [%]"],
 "data": [
  ["O=C1NOCc2c(-c3ccc(C4CCCN4)cc3)[nH]c3cc(F)cc1c23 (single isomer, unassigned) [Example 24_A]", 21.2],
  ["CC1(c2ccc(-c3[nH]c4cc(F)cc5c4c3CONC5=O)cc2)CCCN1 (stereo not shown) [Example 25_A]", 24.8],
  ["CNCc1ccc(-c2[nH]c3cc(F)cc4c3c2CCNC4=O)cc1 [Rucaparib, reference compound]", 14.6]
]}

Next up:
Determine from records and report bioavailability for CC1(c2ccc(-c3[nH]c4cc(F)cc5c4c3CONC5=O)cc2F)CCCN1 (single isomer, unassigned) [Example 26_A]
37.9
